- Tested on: LTB4 biosynthesis in human polymorphonuclear leukocytes (PMNs)
- Test: Inhibition of LTB4 biosynthesis in human polymorphonuclear leukocytes (PMNs)
- Type: cell-based
- Test Settings: Homo sapiens, Leukocyte, Table 5, Thiophene
pIC50: −log10 of the molar value.
Attribute Measured: pIC50

> print(dat)
                                   compound                             tested.system  attribute.measured  number
1  c1csc(C(CC2CCCCC2)Nc2nc3ccccc3o2)c1 (stereo not shown) [Compound 120]  LTB4 biosynthesis in human polymorphonuclear leukocytes (PMNs)               pIC50    8.21

###

# maps each entry to its IC50
- Test system: LTB4 biosynthesis in human polymorphonuclear leukocytes (PMNs)
- Test: Inhibition of LTB4 biosynthesis in human polymorphonuclear leukocytes (PMNs)
- Type: cell-based
- Test Settings: Table 10, Oxazolopyridines; values with <: see footnote d, Table 1
Attribute Measured: IC50 (nM)

> print(dat)
                                   compound  attribute.measured  number
1  Cc1ccc2oc(NC(CC3CCCCC3)c3ccccn3)nc2n1 (single isomer, unassigned) [Compound 167]                IC50     170
2  Cc1ccc2oc(NC(CC3CCCCC3)c3ccccn3)nc2n1 (single isomer, unassigned) [Compound 166]                IC50      15

###

# key: entry, value: pIC50
- Tested on: LTB4 biosynthesis in human polymorphonuclear leukocytes (PMNs)
- Test: Inhibition of LTB4 biosynthesis in human polymorphonuclear leukocytes (PMNs)
- Type: cell-based
- Test Settings: Homo sapiens, Leukocyte, Table 3, Phenyl; values with <: see footnote d, Table 1
pIC50: −log10 of the molar value.
Attribute Measured: pIC50

> print(dat)
                                   compound                             tested.system  qualifying.sign  number
1  CC(C)c1ccc2oc(NC(CC3CCCCC3)c3ccccc3)nc2c1 (stereo not drawn)  LTB4 biosynthesis in human polymorphonuclear leukocytes (PMNs)                =    8.20
2  Fc1ccc(C(CC2CCCCC2)Nc2nc3ccccc3o2)cc1 (stereo not drawn)  LTB4 biosynthesis in human polymorphonuclear leukocytes (PMNs)                =    6.77
3  COc1ccc(C(CC2CCCCC2)Nc2nc3ccccc3o2)cc1 (stereo not drawn)  LTB4 biosynthesis in human polymorphonuclear leukocytes (PMNs)                =    6.26
4  NC(=O)c1ccc2oc(NC(CC3CCCCC3)c3ccccc3)nc2c1 (stereo not drawn)  LTB4 biosynthesis in human polymorphonuclear leukocytes (PMNs)                >    6.00
5  Cc1cccc(C(CC2CCCCC2)Nc2nc3ccccc3o2)c1 (stereo not drawn)  LTB4 biosynthesis in human polymorphonuclear leukocytes (PMNs)                =    6.52
6  CN(C)C(=O)c1ccc2oc(NC(CC3CCCCC3)c3ccccc3)nc2c1 (stereo not drawn)  LTB4 biosynthesis in human polymorphonuclear leukocytes (PMNs)                =    6.77
7  O=C(O)c1ccc2nc(NC(CC3CCCCC3)c3ccccc3)sc2c1 (stereo not drawn)  LTB4 biosynthesis in human polymorphonuclear leukocytes (PMNs)                =    6.66
8  CC(=O)Nc1ccc2oc(NC(CC3CCCCC3)c3ccccc3)nc2c1 (stereo not drawn)  LTB4 biosynthesis in human polymorphonuclear leukocytes (PMNs)                =    7.12
9  Clc1ccc(C(CC2CCCCC2)Nc2nc3ccccc3o2)cc1 (stereo not drawn)  LTB4 biosynthesis in human polymorphonuclear leukocytes (PMNs)                =    6.52

###

- Tested on: LTB4 biosynthesis in human polymorphonuclear leukocytes (PMNs)
- Test: Inhibition of LTB4 biosynthesis in human polymorphonuclear leukocytes (PMNs)
- Type: cell-based
- Test Settings: Homo sapiens, Leukocyte, Table 7, Ketones
pIC50: −log10 of the molar value.
Item-by-item account of pIC50
Attribute Measured: pIC50

> print(dat)
                                smiles.code                             tested.system  qualifying.sign  number
1  Cc1ccc2oc(N[C@@H](CC3CCCCC3)C(=O)c3nccn3C)nc2c1  LTB4 biosynthesis in human polymorphonuclear leukocytes (PMNs)                =    7.64
2  CC(=O)[C@H](Cc1ccccc1)Nc1nc2ccc(C(C)C)cc2s1  LTB4 biosynthesis in human polymorphonuclear leukocytes (PMNs)                =    6.46
3      CC(=O)[C@H](Cc1ccccc1)Nc1nc2ccccc2o1  LTB4 biosynthesis in human polymorphonuclear leukocytes (PMNs)                >    6.00
4  Cc1ccc2oc(N[C@@H](CC3CCCCC3)C(=O)c3ccccc3)nc2c1  LTB4 biosynthesis in human polymorphonuclear leukocytes (PMNs)                >    6.00
5  O=C(c1ccccc1)[C@H](Cc1ccccc1)Nc1nc2ccccc2o1  LTB4 biosynthesis in human polymorphonuclear leukocytes (PMNs)                >    6.52

###

- System: LTB4 biosynthesis in human polymorphonuclear leukocytes (PMNs)
- Test: Inhibition of LTB4 biosynthesis in human polymorphonuclear leukocytes (PMNs)
- Assay type: cell-based
- Test Settings: Homo sapiens, Leukocyte, Table 3, Phenyl; values with <: see footnote d, Table 1
Attribute Measured: IC50 (nM)

> print(dat)
                                   molecule  qualifying.sign  number
1  c1ccc(CC(Nc2nc3ccccc3o2)c2ccccc2)cc1 (stereo not drawn) [Compound 50]                <    1000
2  CNC(=O)Nc1ccc2oc(NC(CC3CCCCC3)c3ccccc3)nc2c1 (stereo not drawn) [Compound 62]                <    1000
3  c1ccc(C(CC2CCCCC2)Nc2nc3ccccc3o2)cc1 (stereo not drawn) [Compound 51]                =     6.9
4  c1ccc(CC(Nc2nc3ccccc3s2)c2ccccc2)cc1 (stereo not drawn) [Compound 47]                =     160
5  Clc1ccccc1C(CC1CCCCC1)Nc1nc2ccccc2o1 (stereo not drawn) [Compound 58]                =      80
6  Ic1ccc2oc(NC(CC3CCCCC3)c3ccccc3)nc2c1 (stereo not drawn) [Compound 59]                =      13
7  N#Cc1ccc2oc(NC(CC3CCCCC3)c3ccccc3)nc2c1 (stereo not drawn) [Compound 67]                =     150
8  CS(=O)(=O)Nc1ccc2oc(NC(CC3CCCCC3)c3ccccc3)nc2c1 (stereo not drawn) [Compound 60]                =     160
9  O=C(O)c1ccc2oc(NC(CC3CCCCC3)c3ccccc3)nc2c1 (stereo not drawn) [Compound 63]                =     190
